# procedureDetails: reversal of MRP1-mediated doxorubicin resistance, pilot screen, H69AR cells, doxorubicin co-treatment (AID 601)
# conditionsUsed: H69AR cells, CellTiter-Glo, 72 h; compound alone cytotoxicity; at 10 µM
Known viability of a selection of compounds

compound | valueUnits | viability
CC1=C(C(=O)N2CCOCC2)C(c2ccccc2F)C2=C(CCCC2=O)N1 (stereo unspecified) | % | 98.8
Cc1cc(NC(=O)C2CCCC2)nc2c1c(=O)oc1ccccc12 | % | 62.8
COc1cccc(NC(=O)C2CCCN2C(=O)Nc2cccc(F)c2)c1 (stereo unspecified) | % | 103
O=C(Nc1ccc(S(=O)(=O)N2CCc3ccccc32)cc1)c1ccc2c(c1)OCO2 | % | 103
CCCCc1nc(NCCN2CCOCC2)c(C#N)c2c1COC(C)(C)C2 | % | 91.6
CC(C)Sc1nc(N2CCCC2)c2c(c1C#N)CC(C)(C)OC2 | % | 80.2
O=C(CSc1nnc(-c2ccncc2)o1)Oc1ccccc1 | % | 102
Oc1cccc2ccc(Nc3ccccn3)nc12 | % | 1.99
O=c1c2cnn(-c3ccccc3)c2ncn1/N=C/c1ccncc1 | % | 101
COc1ccc(CNS(=O)(=O)c2ccc3oc(C(=O)O)c(C)c3c2)cc1 | % | 92.2
CCOC(=O)c1cc2sc(C)cc2n1CC(=O)Nc1cccc(C)c1C | % | 91.2
